Taken from patent US20250313625A1.

- targetDesc: T1, human LAG3 (form used in Octet, Biacore and HDX-MS not given) (human, UniProt P18627 23-450, limits assumed)
- T1 sequence (looked up): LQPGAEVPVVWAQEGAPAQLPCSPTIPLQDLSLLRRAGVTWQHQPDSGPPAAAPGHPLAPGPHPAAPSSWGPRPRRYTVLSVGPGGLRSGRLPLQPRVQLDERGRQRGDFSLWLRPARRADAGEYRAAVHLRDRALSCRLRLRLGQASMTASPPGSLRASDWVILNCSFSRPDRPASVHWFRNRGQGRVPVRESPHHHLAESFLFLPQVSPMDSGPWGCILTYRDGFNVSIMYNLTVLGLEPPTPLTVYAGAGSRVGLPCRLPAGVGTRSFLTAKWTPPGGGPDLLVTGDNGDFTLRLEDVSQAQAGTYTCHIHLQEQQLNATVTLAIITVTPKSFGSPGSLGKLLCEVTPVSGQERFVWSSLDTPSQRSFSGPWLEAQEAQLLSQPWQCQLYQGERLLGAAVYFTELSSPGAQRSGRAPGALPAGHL
- testMethodNotes: BLI (Octet)
Recorded measurements of Kd, one per entry
Quick reminder: number only, in nM, skip the unit.

>  <binder>
023c (antibody, human IgG4, V domains shown, human IgG4 S228P / kappa chimeric antibody; also called chimeric antibody 023; ES005-023c; not shown: human kappa light chain constant region (pcDNA3.4-hIgGk vector)) VH: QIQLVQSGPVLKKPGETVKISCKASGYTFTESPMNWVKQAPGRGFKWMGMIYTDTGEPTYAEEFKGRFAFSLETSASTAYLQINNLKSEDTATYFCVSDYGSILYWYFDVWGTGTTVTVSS VL: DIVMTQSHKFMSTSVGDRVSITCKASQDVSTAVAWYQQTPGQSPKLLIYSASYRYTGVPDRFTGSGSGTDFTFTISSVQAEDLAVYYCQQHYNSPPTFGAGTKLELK

>  <resultUnit>
nM

>  <Kd>
0.456

$$$$
>  <binder>
hu023.09 (antibody, human IgG4, V domains shown, humanized from 023c) VH: QVQLVQSGPEVKKPGASVKVSCKASGYTFTESPMNWVRQAPGQGFEWMGIIYTDTGEPTYAEEFKGRVTMTLDTSTSTVYMELSSLRSEDTAVYFCASDYGSILYWYFDVWGQGTLVTVSS VL: DIQMTQSPSSLSTSVGDRVTITCKASQDVSTAVAWYQQKPGKSPKLLIYSASYRYTGVPSRFSGSGSGTDFTFTISSVQPEDFATYYCQQHYNAPPTFGQGTKLEIK

>  <resultUnit>
nM

>  <Kd>
0.704

$$$$
>  <binder>
hu023.07 (antibody, human IgG4, V domains shown, humanized from 023c) VH: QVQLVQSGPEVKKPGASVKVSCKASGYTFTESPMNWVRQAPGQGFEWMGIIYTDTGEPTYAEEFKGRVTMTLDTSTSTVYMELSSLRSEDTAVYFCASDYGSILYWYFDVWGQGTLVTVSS VL: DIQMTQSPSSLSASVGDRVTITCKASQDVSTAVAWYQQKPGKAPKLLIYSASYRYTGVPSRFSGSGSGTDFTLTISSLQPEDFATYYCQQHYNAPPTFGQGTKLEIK

>  <resultUnit>
nM

>  <Kd>
0.591

$$$$
>  <binder>
hu023.06 (antibody, human IgG4, V domains shown, humanized from 023c) VH: QVQLVQSGAEVKKPGASVKVSCKASGYTFTESPMNWVRQAPGQGFEWMGIIYTDTGEPTYAEEFKGRVTMTRDTSTSTVYMELSSLRSEDTAVYFCASDYGSILYWYFDVWGQGTLVTVSS VL: DIQMTQSPSSLSTSVGDRVTITCKASQDVSTAVAWYQQKPGKSPKLLIYSASYRYTGVPSRFSGSGSGTDFTFTISSVQPEDFATYYCQQHYNAPPTFGQGTKLEIK

>  <resultUnit>
nM

>  <Kd>
0.657

$$$$

// Kd lookup, binder = hu023.12 (antibody, human IgG4, V domains shown, humanized from 023c) VH: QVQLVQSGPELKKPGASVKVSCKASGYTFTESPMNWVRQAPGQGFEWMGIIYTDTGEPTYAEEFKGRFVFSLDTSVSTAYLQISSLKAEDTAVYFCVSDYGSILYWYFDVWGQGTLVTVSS VL: DIQMTQSPSSLSTSVGDRVTITCKASQDVSTAVAWYQQKPGKSPKLLIYSASYRYTGVPSRFSGSGSGTDFTFTISSVQPEDFATYYCQQHYNAPPTFGQGTKLEIK , result: 0.189

// Kd lookup, binder = hu023.10 (antibody, human IgG4, V domains shown, humanized from 023c) VH: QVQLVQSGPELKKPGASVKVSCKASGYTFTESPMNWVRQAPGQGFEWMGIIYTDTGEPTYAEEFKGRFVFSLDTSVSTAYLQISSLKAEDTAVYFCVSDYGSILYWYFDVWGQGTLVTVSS VL: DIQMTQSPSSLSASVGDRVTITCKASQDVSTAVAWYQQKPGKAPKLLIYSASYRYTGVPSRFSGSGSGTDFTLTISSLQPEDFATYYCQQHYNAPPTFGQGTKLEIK , result: 0.281

// Kd lookup, binder = hu023.04 (antibody, human IgG4, V domains shown, humanized from 023c) VH: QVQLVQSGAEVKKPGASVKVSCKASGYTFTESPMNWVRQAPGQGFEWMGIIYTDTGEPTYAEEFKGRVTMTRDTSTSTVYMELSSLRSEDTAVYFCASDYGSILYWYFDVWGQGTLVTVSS VL: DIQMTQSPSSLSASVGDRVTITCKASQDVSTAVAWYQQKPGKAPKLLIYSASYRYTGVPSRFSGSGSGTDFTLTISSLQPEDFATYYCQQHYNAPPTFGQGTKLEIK , result: 0.537

// Kd lookup, binder = hu023.11 (antibody, human IgG4, V domains shown, humanized from 023c) VH: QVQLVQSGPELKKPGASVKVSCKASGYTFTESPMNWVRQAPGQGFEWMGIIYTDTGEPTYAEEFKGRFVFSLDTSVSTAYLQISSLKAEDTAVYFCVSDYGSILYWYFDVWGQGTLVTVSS VL: DIQMTQSPSSLSASVGDRVTITCKASQDVSTAVAWYQQKPGKSPKLLIYSASYRYTGVPSRFSGSGSGTDFTFTISSLQPEDFATYYCQQHYNAPPTFGQGTKLEIK , result: 0.0782

// Kd lookup, binder = hu023.08 (antibody, human IgG4, V domains shown, humanized from 023c) VH: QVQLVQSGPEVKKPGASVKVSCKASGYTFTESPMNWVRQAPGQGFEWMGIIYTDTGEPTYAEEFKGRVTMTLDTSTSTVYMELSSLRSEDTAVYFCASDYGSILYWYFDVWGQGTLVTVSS VL: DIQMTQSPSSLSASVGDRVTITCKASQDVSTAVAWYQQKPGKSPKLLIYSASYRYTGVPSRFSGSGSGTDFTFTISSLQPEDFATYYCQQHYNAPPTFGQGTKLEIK , result: 0.689

// Kd lookup, binder = hu023.14 (antibody, human IgG4, V domains shown, humanized from 023c) VH: QIQLVQSGPELKKPGASVKISCKASGYTFTESPMNWVRQAPGQGFEWMGIIYTDTGEPTYAEEFKGRFVFSLDTSVSTAYLQISSLKAEDTAVYFCVSDYGSILYWYFDVWGQGTLVTVSS VL: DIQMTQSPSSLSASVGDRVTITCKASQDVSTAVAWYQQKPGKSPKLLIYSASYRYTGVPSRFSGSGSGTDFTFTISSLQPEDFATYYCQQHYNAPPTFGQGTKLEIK , result: 0.24

// Kd lookup, binder = hu023.13 (antibody, human IgG4, V domains shown, humanized from 023c) VH: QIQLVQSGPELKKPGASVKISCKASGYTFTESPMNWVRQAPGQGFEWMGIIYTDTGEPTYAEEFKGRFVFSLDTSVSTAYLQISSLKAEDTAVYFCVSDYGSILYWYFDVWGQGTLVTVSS VL: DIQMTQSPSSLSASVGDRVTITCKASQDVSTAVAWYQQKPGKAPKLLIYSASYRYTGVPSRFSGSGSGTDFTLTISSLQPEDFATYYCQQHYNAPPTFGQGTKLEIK , result: 0.121
